Attribution: patent US9115101B2

- target_entity: RORc ligand binding domain (Homo sapiens, UniProt P51449)
- Construct: host or cells: E. coli
- Sequence (P51449 269-508 limits assumed, species assumed): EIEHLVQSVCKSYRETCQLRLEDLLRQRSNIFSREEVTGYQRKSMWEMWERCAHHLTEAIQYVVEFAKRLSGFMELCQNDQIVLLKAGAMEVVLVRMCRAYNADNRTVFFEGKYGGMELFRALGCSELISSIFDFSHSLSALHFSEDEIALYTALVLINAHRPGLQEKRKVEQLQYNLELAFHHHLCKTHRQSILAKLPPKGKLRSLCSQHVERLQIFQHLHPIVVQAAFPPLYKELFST
- test_details: In Vitro RORc Ligand Binding Assay (25-[3H]hydroxycholesterol radioligand filtration)
- condition_set: In Vitro RORc Ligand Binding Assay; Table 4; read-out: RORc IC50
quantity_measured: IC50 (nM)

[I] CC(=O)N1CCN(c2ccc(CN3[C@H](C)CCCC(c4ccccc4)S3(=O)=O)c(F)c2)CC1 (single isomer, unassigned) [Example 321]
[II] CC(=O)N1CCN(c2ccc(CN3[C@@H](C)CCC(c4ccccc4F)S3(=O)=O)c(F)c2)CC1 (single isomer, unassigned) [Example 117]
[III] CC(=O)N1CCN(c2ccc(CN3[C@@H](C)CCC(c4ccc(Cl)cc4)S3(=O)=O)c(F)c2)CC1 (single isomer, unassigned) [Example 175]
Order by IC50, ascending. Put the labels in the requested order and write them down.
II, I, III
(II: 3 nM, I: 16 nM, III: 30 nM)

[A] C[C@H](O)C(=O)N1CCN(c2ccc(CN3CCCCC(c4ccccc4)S3(=O)=O)cc2)CC1 (single isomer, unassigned) [Example 309]
[B] C[C@H]1CCC(c2ccccc2)S(=O)(=O)N1Cc1ccc(N2CCn3cncc3C2)cc1F (single isomer, unassigned) [Example 155]
# return whichever of A and B has the smaller IC50 Write down the label attached to your selection.
A
